Each entry below carries its reported AC50.
target: Alpha-1A adrenergic receptor (Homo sapiens); format: functional, cell-based; note: assay procedure not described here
Sequence (P35348 whole entry): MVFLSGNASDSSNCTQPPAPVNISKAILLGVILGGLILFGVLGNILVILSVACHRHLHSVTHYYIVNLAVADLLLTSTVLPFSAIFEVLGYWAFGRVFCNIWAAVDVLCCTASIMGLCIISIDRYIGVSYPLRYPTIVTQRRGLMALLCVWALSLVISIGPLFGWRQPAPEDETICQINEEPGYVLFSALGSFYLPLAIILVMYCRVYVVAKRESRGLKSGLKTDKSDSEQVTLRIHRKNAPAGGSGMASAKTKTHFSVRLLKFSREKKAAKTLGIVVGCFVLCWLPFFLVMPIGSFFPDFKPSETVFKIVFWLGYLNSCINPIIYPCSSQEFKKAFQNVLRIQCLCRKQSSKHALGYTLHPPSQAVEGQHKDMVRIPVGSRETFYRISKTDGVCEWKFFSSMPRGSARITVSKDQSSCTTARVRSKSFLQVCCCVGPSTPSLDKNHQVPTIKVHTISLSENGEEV

Sample answers from the record:
INSERT INTO results (compound, target, measurement_kind, result) VALUES
  ('COc1cc(N)cn[n+]1-c1ccccc1 [AMEZINIUM METILSULFATE]', 'Alpha-1A adrenergic receptor (Homo sapiens)', 'AC50', '25 µM'),
  ('Cc1ccc(-c2ncc(Cl)cc2-c2ccc(S(C)(=O)=O)cc2)cn1', 'Alpha-1A adrenergic receptor (Homo sapiens)', 'AC50', '> 30 µM'),
  ('CCOCC(O)COc1ccc(NC(=O)CC[S+](C)C)cc1 (centres undefined)', 'Alpha-1A adrenergic receptor (Homo sapiens)', 'AC50', '> 30 µM'),
  ('CCCCOC(=O)c1ccc(N)cc1', 'Alpha-1A adrenergic receptor (Homo sapiens)', 'AC50', '> 30 µM'),
  ('CC1=C(/C=C/C(C)=C/C=C/C(C)=C/C(=O)Oc2c(C)c(C)c3c(c2C)CCC(C)(CCCC(C)CCCC(C)CCCC(C)C)O3)C(C)(C)CCC1 (centres undefined)', 'Alpha-1A adrenergic receptor (Homo sapiens)', 'AC50', '> 30 µM');

Now consider a different compound.
-- ask What does the record list as AC50 for `CCn1c(=O)c2c(nc(/C=C/c3ccc(OC)c(OC)c3)n2C)n(CC)c1=O` ?
-- reply > 30 µM

###

molecular target: 3',5'-cyclic-AMP phosphodiesterase 4D (Homo sapiens); assay type: functional; note: assay procedure not described here
Sequence (Q08499 whole entry): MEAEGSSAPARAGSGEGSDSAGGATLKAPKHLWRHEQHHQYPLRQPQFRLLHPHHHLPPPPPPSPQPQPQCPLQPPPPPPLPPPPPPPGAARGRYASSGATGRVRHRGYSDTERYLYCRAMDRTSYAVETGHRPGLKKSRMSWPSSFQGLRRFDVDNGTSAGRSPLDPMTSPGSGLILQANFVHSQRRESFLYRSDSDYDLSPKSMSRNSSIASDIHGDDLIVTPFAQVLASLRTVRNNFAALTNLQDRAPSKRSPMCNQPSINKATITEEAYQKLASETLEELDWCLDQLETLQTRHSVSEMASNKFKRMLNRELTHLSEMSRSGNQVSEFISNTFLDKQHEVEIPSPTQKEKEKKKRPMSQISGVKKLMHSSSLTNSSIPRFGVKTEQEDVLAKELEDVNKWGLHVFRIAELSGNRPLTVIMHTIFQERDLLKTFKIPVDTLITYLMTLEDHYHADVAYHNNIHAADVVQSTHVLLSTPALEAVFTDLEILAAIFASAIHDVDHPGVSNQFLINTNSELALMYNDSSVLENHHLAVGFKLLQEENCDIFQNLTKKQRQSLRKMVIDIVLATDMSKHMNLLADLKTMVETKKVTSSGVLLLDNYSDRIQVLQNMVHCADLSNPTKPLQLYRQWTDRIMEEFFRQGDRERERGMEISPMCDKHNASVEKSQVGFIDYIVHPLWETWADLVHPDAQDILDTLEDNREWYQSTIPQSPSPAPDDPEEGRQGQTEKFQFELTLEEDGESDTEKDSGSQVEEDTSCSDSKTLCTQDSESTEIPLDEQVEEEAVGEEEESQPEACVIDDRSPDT
AC50 reference

INSERT INTO measurements (compound, result) VALUES
  ('CCOC(=O)C1=C(C)NC(C)=C(C(=O)OC)C1c1cccc(Cl)c1Cl (stereo not drawn)', '3.2 µM'),
  ('CC(C(=O)O)c1ccc(C(=O)c2ccccc2)s1 (stereo not drawn)', '> 30 µM'),
  ('C[C@H](CCC(=O)O)[C@H]1CC[C@H]2[C@@H]3[C@H](O)C[C@@H]4C[C@H](O)CC[C@]4(C)[C@H]3CC[C@]12C', '> 30 µM');

-- ask AC50 lookup needed for `CC(=O)[C@@]1(O)CC[C@H]2[C@@H]3C[C@H](C)C4=CC(=O)C=C[C@]4(C)[C@@]3(F)[C@@H](O)C[C@@]21C` , thanks.
-- reply > 30 µM

-- ask Also `CCN(CC)CC(=O)Nc1c(C)cccc1C` ?
-- reply > 10 µM

-- ask Lookup `C=CC1=C(C(=O)O)N2C(=O)[C@@H](NC(=O)/C(=N\O)c3csc(N)n3)[C@H]2SC1`
-- reply > 30 µM

-- ask What about `CCN(CC)CCCN(c1ccccc1)C1Cc2ccccc2C1` ?
-- reply > 30 µM

-- ask Next compound up: O=C(O[C@H]1C[N+]2(CCCOc3ccccc3)CCC1CC2)C(O)(c1cccs1)c1cccs1 [ACLIDINIUM BROMIDE]
-- reply > 30 µM

###

Listing: AC50 of selected molecules
molecular target: Epidermal growth factor receptor (Homo sapiens, UniProt P00533); format: functional; note: assay procedure not described here
Sequence (P00533 whole entry): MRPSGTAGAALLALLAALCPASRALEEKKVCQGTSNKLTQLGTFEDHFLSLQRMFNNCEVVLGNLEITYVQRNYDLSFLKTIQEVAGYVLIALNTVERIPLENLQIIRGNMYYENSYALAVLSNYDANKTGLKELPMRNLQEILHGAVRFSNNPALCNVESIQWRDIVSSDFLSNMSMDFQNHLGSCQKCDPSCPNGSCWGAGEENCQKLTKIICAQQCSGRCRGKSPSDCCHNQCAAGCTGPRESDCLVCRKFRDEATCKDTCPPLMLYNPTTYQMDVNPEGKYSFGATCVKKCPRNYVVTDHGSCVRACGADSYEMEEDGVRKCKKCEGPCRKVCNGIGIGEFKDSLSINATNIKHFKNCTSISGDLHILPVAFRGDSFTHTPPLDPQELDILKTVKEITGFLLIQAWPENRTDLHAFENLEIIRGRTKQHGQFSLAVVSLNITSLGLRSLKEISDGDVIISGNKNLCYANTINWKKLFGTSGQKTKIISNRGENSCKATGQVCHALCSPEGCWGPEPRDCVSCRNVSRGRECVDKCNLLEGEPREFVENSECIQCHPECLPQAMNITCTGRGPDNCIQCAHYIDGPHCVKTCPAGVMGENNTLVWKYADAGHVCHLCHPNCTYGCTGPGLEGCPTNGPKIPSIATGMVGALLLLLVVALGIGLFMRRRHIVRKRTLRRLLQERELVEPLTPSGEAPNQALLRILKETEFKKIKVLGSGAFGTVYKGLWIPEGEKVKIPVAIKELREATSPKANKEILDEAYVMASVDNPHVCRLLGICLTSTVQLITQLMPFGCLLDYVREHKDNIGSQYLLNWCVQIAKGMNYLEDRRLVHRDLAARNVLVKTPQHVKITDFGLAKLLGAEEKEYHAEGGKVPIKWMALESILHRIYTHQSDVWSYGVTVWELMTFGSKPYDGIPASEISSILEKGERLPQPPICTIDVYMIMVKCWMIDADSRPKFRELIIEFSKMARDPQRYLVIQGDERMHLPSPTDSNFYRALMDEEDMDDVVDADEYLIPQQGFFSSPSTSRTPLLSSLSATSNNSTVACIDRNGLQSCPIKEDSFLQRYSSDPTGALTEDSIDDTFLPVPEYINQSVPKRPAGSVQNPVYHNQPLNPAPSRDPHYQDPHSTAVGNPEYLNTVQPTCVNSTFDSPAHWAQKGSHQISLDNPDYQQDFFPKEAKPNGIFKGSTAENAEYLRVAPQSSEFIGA

Use the examples below as a reference point.
INSERT INTO measurements (molecule, target, result) VALUES
  ('C[C@@H](O)[C@H]1C(=O)N2C(C(=O)O)=C(SCCN=CN)C[C@H]12 [IMIPENEM ANHYDROUS]', 'Epidermal growth factor receptor (Homo sapiens, UniProt P00533)', '> 300 µM'),
  ('CO[C@@H]1[C@@H](OC(N)=O)[C@@H](O)[C@H](Oc2ccc3c(O)c(NC(=O)c4ccc(O)c(CC=C(C)C)c4)c(=O)oc3c2C)OC1(C)C', 'Epidermal growth factor receptor (Homo sapiens, UniProt P00533)', '> 30 µM'),
  ('c1cnc2cc3c(cc2n1)[C@@H]1CNC[C@H]3C1', 'Epidermal growth factor receptor (Homo sapiens, UniProt P00533)', '> 30 µM');

Note: attention shifts to another entry.
-- ask Tell me the measured AC50 of Nc1c2c(nc3ccccc13)CCCC2O (centres undefined) , please.
-- reply > 30 µM
